Taken from the supplement of paper PMC10933113.

The following compounds are shown together with reported CD86 surface expression induction values.
System: THP-1
ASSAY_SUMMARY: CD86 surface expression induction over DMSO control (% over DMSO); higher = stronger dendritic cell activation
ASSAY_CONTEXT: exposure time: 24 h
Structures can show the parent of a compound that is named as a salt.
Answer using only a numeral; do not append any unit.

- C/C=C/C=C/C=O [2,4-Hexadienal] (200 µM): 4.48
- N=C(N)NN=C(/C=C/c1ccc([N+](=O)[O-])o1)/C=C/c1ccc([N+](=O)[O-])o1 [Nitrovin] (10 µM): 88.4
- C#CCN(C)CCCOc1ccc(Cl)cc1Cl [Clorgyline hydrochloride] (100 µM): -4.71

Okay, now this compound:
Q. Could you share what CD86 surface expression induction was measured for CCCCCCCCCCCCCCCC[N+](C)(C)Cc1ccccc1 [Benzylhexadecyldimethylammonium chloride] (10 µM) , tested on THP-1?
A. 57.5
